assay: Caco-2 flux assay for cell permeability; format: in vitro ADME; details: human; ratio of Papp (B-A) to Papp (A-B), Caco-2
Assignment: determine reported efflux ratio at 2 h for the given compounds.
Output: the number by itself.

Prompt: Param item = CC(C)(C)[C@H](c1cc(-c2cc(F)ccc2F)cn1Cc1ccccc1)N(CC[C@H](N)C(=O)NCCNC(=O)CCCC(=O)NCCCC[C@H](N)C(=O)O)C(=O)CO.O=C(O)C(F)(F)F ; retrieve measured efflux ratio at 2 h.
Completion: 5.3

Prompt: Param item = CC(C)(C)[C@H](c1cc(-c2cc(F)ccc2F)cn1Cc1ccccc1)N(CC[C@H](N)C(=O)NCCNC(=O)CNC(=O)CCCC(=O)NCCCC[C@H](N)C(=O)O)C(=O)CO.O=C(O)C(F)(F)F ; retrieve measured efflux ratio at 2 h.
Completion: 1

###

Assignment: determine reported Papp B→A at 2 h for the given molecules.
assay: Caco-2 flux assay for cell permeability; assay type: in vitro ADME; settings: human; Caco-2, 2 hours incubation
Answer format reminder: number followed by unit.

Prompt: Param item = CC(C)(C)[C@H](c1cc(-c2cc(F)ccc2F)cn1Cc1ccccc1)N(CC[C@H](N)C(=O)NCCNC(=O)CCCC(=O)NCCCC[C@H](N)C(=O)O)C(=O)CO.O=C(O)C(F)(F)F [Example M29] ; retrieve measured Papp B→A at 2 h.
Completion: 4.1 nm/s

Prompt: Param item = CC(C)(C)[C@H](c1cc(-c2cc(F)ccc2F)cn1Cc1ccccc1)N(CCCN)C(=O)CSC[C@H](NC(=O)CCOCCOCCOCCOCCNC(=O)CNC(=O)CC(SC[C@H](N)C(=O)O)C(=O)O)C(=O)O.O=C(O)C(F)(F)F.O=C(O)C(F)(F)F (stereo partly drawn) [Example M20] ; retrieve measured Papp B→A at 2 h.
Completion: 0.9 nm/s

Prompt: Param item = CC(C)(C)[C@H](c1cc(-c2cc(F)ccc2F)cn1Cc1ccccc1)N(CC[C@H](N)C(=O)NCCNC(=O)CNC(=O)CCCC(=O)NCCCC[C@H](N)C(=O)O)C(=O)CO.O=C(O)C(F)(F)F [Example M28] ; retrieve measured Papp B→A at 2 h.
Completion: 1.9 nm/s
